Listed here: items and their measured cytotoxicity at 70.5 h.
# experimental.details: Human HepG2 cell viability assay in 384 well format
# Assay type: toxicity, cell-based
# Design: dose 125 nL, time 70.5 hour; concentration not given beside the values
# assay.setup: HepG2 cells, read-out: Inhibition

molecule	scale.unit	cytotoxicity at 70.5 h
CN(Cc1cccnc1)C1CCCN(Cc2noc(C3CC3)n2)C1 (stereo unspecified)	%	24.6
COc1ccc(S(=O)(=O)N2CCOC(C)(C(N)=O)C2)cc1 (stereo unspecified)	%	-3.24
CC1CCN(S(=O)(=O)N2CCc3c(c(C(=O)O)nn3CC3CC3)C2)CC1	%	1.09
Cn1cnc2c1C(COCC1CC1)CN(C(=O)c1cscn1)C2 (stereo unspecified)	%	-5.14
CCNC(=O)NC(=O)CN1CCOC(c2cccc(Br)c2)C1 (stereo unspecified)	%	-8.56
O=C(c1cccc(-n2cccn2)c1)N1CCCOC(CN2CCCC2)C1 (stereo unspecified)	%	0.244

###

Listed here: items and their measured cytotoxicity at 70.5 h.
# experimental.details: Human HepG2 cell viability assay in 384 well format
# Type: toxicity, cell-based
# Set-up: dose 125 nL, time 70.5 hour; concentration not given beside the values
# assay.setup: HepG2 cells, read-out: Inhibition
metric: cytotoxicity at 70.5 h (%)

compound	reported
Cc1noc(C)c1CS(=O)(=O)CC(=O)NCCc1ccccc1	15.9
CCC(O)CN(c1ccccc1)S(=O)(=O)c1cnc(C)s1 (stereo unspecified)	18.5
CS(=O)(=O)N1CCc2[nH]cnc2C12CCN(C(=O)c1cccnc1)CC2	-0.221
O=C(c1ccnnc1)N1C[C@H](OCC2CCOCC2)[C@H]2OCCC[C@H]21	0.563
COc1cc2c(cc1CNC(=O)C(C)n1ccnc1C(C)C)OCCO2 (stereo unspecified)	-3.89
COCCOCC(=O)N1CCc2cc(Cl)cc(Cl)c2C1	-6.61
Cc1cc(NCCSc2nccn2C)n2nc(C)c(C)c2n1	-4.55
CC(C)c1cnc(CN(C)C2CCN(CCn3cc(C#N)cn3)C2)o1 (stereo unspecified)	-2.83
O=C1CCc2cc(S(=O)(=O)NCc3cc4n(n3)CCCNC4)ccc2N1	-12.2
CCn1ncc(CN2CCN(C(=O)Cn3cc(Br)c(C)n3)CC2)c1C	-9.19
O=C(c1cc[nH]n1)N1CCC(c2cc(Nc3ccccn3)n[nH]2)CC1	-8.04

###

Listed here: items and their measured cytotoxicity at 70.5 h.
# experimental.details: Human HepG2 cell viability assay in 384 well format
# Type: toxicity, cell-based
# Parameters: dose 125 nL, time 70.5 hour; concentration not given beside the values
# assay.setup: HepG2 cells, read-out: Inhibition

compound	cytotoxicity at 70.5 h / %
COCCOc1ccc(NC(=O)C2CC(=O)N(C)C2)cn1 (configuration not stated)	-4.68
COc1ccc(NC(=O)C2CC(=O)n3cnnc3S2)cc1 (configuration not stated)	2.23
Cc1cc(CNC2(c3ccccc3)CCCCC2)on1	-0.993
O=C(c1ccc(CN2CCCCC2)cc1)N1CCCC1c1cccs1 (configuration not stated)	-0.233
Cc1cnn(CC2CN(c3ncnc4ccccc34)CCO2)c1 (configuration not stated)	31.7
Cc1ccc(CCNC(=O)CC2COCCN2S(=O)(=O)N(C)C)o1 (configuration not stated)	13.5
CCn1c(C2CCCN(Cc3cccc4cnccc34)C2)nn(C)c1=O (configuration not stated)	-7.71
Cc1cccc(CN2CCc3ncnc(-c4ccsc4)c3CC2)n1	-13.6
Cc1nn(C)c(Cl)c1CNCc1cccnc1N1CCN(C)CC1	2.87
c1ccc(C2CCN(c3cncc(-n4cccn4)n3)CC2)cc1	-4.22
O=C(Nc1ccnc2ccnn12)c1ccc(NC2CC2)nc1	-1.35
Cc1csc(N2CCCN(C(=O)Cc3ccc(C)s3)CC2)n1	16.1

Origin of the recorded values: ChEMBL document CHEMBL3507680
